- system: T1, CC-Di-KE (N-terminal acetylation (methods, said of the peptides in general))
- T1 chain: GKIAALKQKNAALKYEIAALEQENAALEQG
- assay_protocol: circular dichroism thermal unfolding, concentration dependence of TM; Kd for heterodimerization estimated from the concentration dependence of the TM of free peptides in solution
- assay_setup: both partners purified
measured_quantity: Kd (nM)
The answer is to be given in nM; state only the numeric part.

### Prompt Any idea what its Kd is? The binder is Ac-GEIAALEQENAALEQKIAALKWKNAALKQG-NH2 [CC-Di-EK]
### Response 102
